Test: Degradation kinetics with solar irradiation
property name: half-life (min)
// units = min; emit number, no label

Data request: Please list half-life recorded for the compound Oc1cc(I)c(O)cc1I [2,5-Diiodohydroquinone, 2,5-diiodohydroquinone]
Data returned: 9

Data request: Please list half-life recorded for the compound Oc1cc(Cl)c(O)cc1Cl [2,5-Dichlorohydroquinone, 2,5-dichlorohydroquinone]
Data returned: 6.6

Data request: Please list half-life recorded for the compound Oc1cc(Br)c(O)cc1Br [2,5-Dibromohydroquinone, 2,5-dibromohydroquinone]
Data returned: 9

Data request: Please list half-life recorded for the compound Oc1ccc(Br)cc1Br
Data returned: 2100

====

Provide the recorded half-life for the entries that follow.
Test: Degradation kinetics without solar irradiation (darkness)
Format: physicochemical
Conditions: pH not given; read-out: Half-life, without solar irradiation (converted)
// units = min; emit number, no label

Data request: Please list half-life recorded for the molecule Oc1cc(Br)c(O)cc1Br [2,5-Dibromohydroquinone, 2,5-dibromohydroquinone]
Data returned: 9

Data request: Please list half-life recorded for the molecule Oc1cc(Cl)c(O)cc1Cl [2,5-Dichlorohydroquinone, 2,5-dichlorohydroquinone]
Data returned: 7.8

Data request: Please list half-life recorded for the molecule Oc1cc(I)c(O)cc1I [2,5-Diiodohydroquinone, 2,5-diiodohydroquinone]
Data returned: 9

====

Experiment: Degradation kinetics without solar irradiation (darkness)
Type: physicochemical
Conditions: buffer; pH 6.2; read-out: half-life in darkness (converted)
property name: half-life (days)
// units = days; emit number, no label

Data request: Please list half-life recorded for the compound O=C1C=C(Cl)C(=O)C(Cl)=C1 [2,6-DCQ, 2,6-dichloro-1,4-benzoquinone]
Data returned: 2.73
